Below, each entry is listed alongside its reported exon inclusion enrichment index.
B1: mRNA-splicing (parent)
chain: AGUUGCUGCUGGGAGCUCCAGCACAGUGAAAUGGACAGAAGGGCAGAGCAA

Variants of: B1
TEST SUMMARY: exon inclusion enrichment index; higher = more inclusion; WT1 exon 5 minigene, HEK293
Please reply with the value in numeric form only.

Some variants with recorded exon inclusion enrichment index:
                             chain_sequence                     assay_metric  value_reported
0  AGUUGCUGCUGGGAGCUCCAGCACAGUGAAAUGGACAGAAGGGAAGAGCAA [C44A]  exon inclusion enrichment index           0.507
1  AGUUAGGGUCGGGAGCUCCAGCACAGUGAAAUGGACAGAAGGGCAGAGCAA [G5A C6G U7G C9U U10C]  exon inclusion enrichment index         0.00564
2  AGUUACCACCGGGAGCUCGCGCACAGUGAAAUGGACAGAAGGGCAGAGCAA [G5A U7C G8A U10C C19G A20C]  exon inclusion enrichment index             2.4
3  ACGUCACACAGGGAGCUCCAGCACAGUGAAAUGGACAGAAGGGCAGAGCAA [G2C U3G G5C C6A U7C G8A U10A]  exon inclusion enrichment index           0.148
4  AGUUAUAUAUGGGAGCUCCAGAGCAGUGAAAUGGACAGAAGGGCAGAGCAA [G5A C6U U7A G8U C9A C22A A23G]  exon inclusion enrichment index          0.0409
5  AGUUCUUCUCGGGAGCUCCAUAACAGUGAAAUGGACAGAAGGGCAGAGCAA [G5C C6U G8C C9U U10C G21U C22A]  exon inclusion enrichment index           0.661
6  AGUUGACGACGGGAGCUCCAGCACAGUGAAAUGGACAGAAUCGCAGAGCAA [C6A U7C C9A U10C G41U G42C]  exon inclusion enrichment index            3.58

Please turn your attention to the following entry.
Sample AGUUCUUCUCGGGAGCUCCAGCACAGUGAAAUGGACAGAAGGGCGAAGCAA [G5C C6U G8C C9U U10C A45G G46A] ; exon inclusion enrichment index observed: 3.98
